- Tested on: DMS 273 small cell lung
- test.method.notes: NCI tumour cell line growth inhibition, 48 h
measurement.label: TGI

CC(C)=CCCC1(C)C=Cc2c(ccc3c2[nH]c2cc(O)c(C)cc23)O1 (stereo unspecified)
9.81 µM
CCC(C)Cn1c(C)nc2c1C(=O)c1ccccc1C2=O (stereo unspecified)
64 µM
BrCC[N+]12CCCN1CCC2
37.1 µM

Provide the reported TGI of each entry below, same order.
1. CC1(C)CC(=O)C=C(NC(=O)c2ccccc2)C1
2. O=C(/C=C/c1ccc(OCCCOc2ccc(/C=C/C(=O)c3ccc(Cl)cc3)cc2)cc1)c1ccc(Cl)cc1
3. COC(=O)C1=C(c2cc(OC)c(OC)c(OC)c2)OC(c2cc(OC)c(OC)c(OC)c2)C1 (stereo unspecified)
4. COc1cccc(C2N3CCCCC3[C@@H]3c4[nH]c5ccccc5c4CCN23)c1OC (stereo partly specified)
5. O=[P+](O)c1cc2c3ccccc3ccc2c2ccccc12

["> 100 µM", "> 100 µM", "> 100 µM", "29.7 µM", "> 100 µM"]

Each molecule below has a recorded value; state its TGI.
1. O=C1NC(=Nc2ccccc2Cl)SC1C(=O)Nc1ccc([N+](=O)[O-])cc1[N+](=O)[O-] (stereo unspecified)
2. NC(=O)COc1ccc(Br)cc1Br
3. CCN(CC)C(=O)c1ccc(C)c(N=NN(C)C)c1

1: > 100 µM; 2: > 100 µM; 3: > 100 µM
